Recorded log10 TGI values for a group of compounds are listed next.
# Test system: MDA-MB-435
# TEST METHOD NOTES: NCI tumour cell line growth inhibition, 48 h
Quick note: numbers are log10 of TGI, with µM as the unit.

[in] I'd like to know its log10 TGI. The compound in question is `O=[N+]([O-])c1ccc(Sc2c3ccccc3nc3ccccc23)cn1`
[out] 1.52

[in] Item: `O=C(CCN1CCOCC1)Nc1cccc(-n2cc(-c3ccncc3)c(-c3ccc(Cl)c(O)c3)n2)c1`
[out] 0.11

###

# Tested on: SK-MEL-2 melanoma
# TEST METHOD NOTES: NCI tumour cell line growth inhibition, 48 h; in the data active = GI50 below about 0.43 µM; inactive = the rest
Answer with one of the outcomes true (1) for active, false (0) for inactive

Example entries and their recorded answers appear below.
COMPOUND: CN1C(NNC(=O)c2cccnc2)=NS(=O)(=O)c2cc(Cl)ccc21
ANSWER LABEL: false (0)

COMPOUND: COc1cc(C(=O)O[C@H](C(N)=O)[C@]2(C)CO2)c2cccc(C)c2c1
ANSWER LABEL: true (1)

COMPOUND: O=C(CCN1CCOCC1)Nc1cccc(-n2cc(-c3ccncc3)c(-c3ccc(Cl)c(O)c3)n2)c1
ANSWER LABEL: false (0)

COMPOUND: CCOC(=O)C1=C(N)Oc2c(sc3c(C)cccc23)C1c1ccc(F)cc1 (stereo not given)
ANSWER LABEL: false (0)

COMPOUND: c1ccc2c(c1)c1ccccc1c1ccccc21
ANSWER LABEL: false (0)

[in] Tell me the recorded outcome of this test for COc1ccc2c(c1)C(C)Cc1c(ncnc1-n1cnc3ccccc31)N2C (stereo not given) .
[out] true (1)

[in] `Cn1cc(S(=O)(=O)N2CCC3=Cc4c(cnn4-c4ccc(F)cc4)C[C@]3(C(=O)c3cc(C(F)(F)F)ccn3)C2)cn1` ?
[out] false (0)

[in] For `Nc1c(C(=O)Nc2ccccc2Cl)sc2nc3c(cc12)C(=O)CCC3` then?
[out] false (0)

[in] Lookup `O=C(N/N=C/c1ccc(O)cc1O)c1cccnc1`
[out] false (0)

[in] Next compound up: `Clc1nc(Cl)c2ncn(Cc3ccccc3Cn3cnc4c(Cl)nc(Cl)nc43)c2n1`
[out] false (0)
